# Target Under Test: Mitogen-activated protein kinase 14 (Homo sapiens, UniProt Q16539)
# Sequence (Q16539 whole entry): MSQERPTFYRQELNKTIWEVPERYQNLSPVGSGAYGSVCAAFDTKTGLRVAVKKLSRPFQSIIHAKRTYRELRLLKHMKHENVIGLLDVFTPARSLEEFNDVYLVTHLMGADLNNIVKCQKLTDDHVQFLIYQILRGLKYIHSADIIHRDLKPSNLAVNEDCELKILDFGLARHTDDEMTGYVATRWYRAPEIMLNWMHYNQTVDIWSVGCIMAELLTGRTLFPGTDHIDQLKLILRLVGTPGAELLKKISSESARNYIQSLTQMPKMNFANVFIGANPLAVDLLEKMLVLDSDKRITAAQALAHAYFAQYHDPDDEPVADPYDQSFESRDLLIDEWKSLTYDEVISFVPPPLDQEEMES
# Experiment: Inhibition of p38-alpha in human TC28 cells assessed as inhibition of IL-1-induced PGE2 production incubated for 20 mins prior to IL-1 challenge measured after 24 hrs by ELISA
# Type: cell-based
Measurement Label: IC50 (µM)

(1) N#Cc1ccccc1Oc1ccc(C(=O)NCc2ccccc2)cc1
(2) N#Cc1ccccc1Oc1ccc(C(=O)NCc2ccncn2)cc1
(3) N#Cc1ccccc1Oc1ccc(C(=O)NCc2ccncc2)cc1
(4) N#Cc1ccccc1Oc1ccc(C(=O)NCc2cccnc2)cc1
(5) CCCc1c(C(=O)Nc2cc(C#N)ccc2C)cnn1-c1ccccc1
Req: Order these by IC50, descending, and give the full ranking. Use the labels to give the requested order.
Resp: 3, 2, 4, 1, 5

###

# Target Under Test: Mitogen-activated protein kinase 14 (Homo sapiens)
# Experiment: Inhibition of p38-alpha in human PBMC assessed as inhibition of LPS-induced TNF-alpha production incubated for 30 mins prior to LPS challenge measured after 7 hrs by ELISA
Measurement Label: IC50 (µM)

(I) CCCc1c(C(=O)Nc2cc(C(=O)O)ccc2C)cnn1-c1ccccc1
(II) N#Cc1ccccc1Oc1ccc(C(=O)NCc2ccncc2)cc1
Req: Rank I against II by their IC50 values and give the higher one. Please indicate the selected item by its label.
Resp: I
(I: 21 µM, II: 5.4 µM)

###

# Experiment: Fraction unbound in human plasma by equilibrium dialysis method
# Assay type: ADME, cell-free
Measurement Label: fraction unbound

Req: State the recorded fraction unbound for this entry: N#Cc1ccccc1Oc1ccc(C(=O)NCc2ccncn2)cc1
Resp: 0.27

(a) CCCc1c(C(=O)Nc2cc(S(=O)(=O)N(C)C)ccc2C)cnn1-c1cccnc1
(b) N#Cc1ccccc1Oc1ccc(C(=O)NCc2ccncc2)cc1
(c) CCCc1c(C(=O)Nc2cc(S(=O)(=O)N(C)C)ccc2C)cnn1-c1ccccc1
Req: Task for the reader: rank each entry by its fraction unbound, from the minimum upward. Give the labels in the order requested.
Resp: c, b, a

###

# Experiment: Thermodynamic solubility of the compound at pH 7.4
# Assay type: physicochemical
# Condition: buffer, read-out: Therm_solubility
Measurement Label: solubility thermodynamic (µM)

Req: Would you kindly share the measured solubility thermodynamic for N#Cc1ccccc1Oc1ccc(C(=O)NCc2ccncc2)cc1 ?
Resp: 120

(1) CCCc1c(C(=O)Nc2cc(S(=O)(=O)N(C)C)ccc2C)cnn1-c1ccccc1
(2) CCCc1c(C(=O)Nc2cc(S(=O)(=O)N(C)C)ccc2C)cnn1-c1cccnc1
(3) N#Cc1ccccc1Oc1ccc(C(=O)NCc2ccncn2)cc1
Req: Order the records so the highest solubility thermodynamic appears first and the lowest last. A ranking is expressed here by listing the labels in the requested order.
Resp: 3, 2, 1
(3: 360 µM, 2: 21 µM, 1: 0.55 µM)

###

# Experiment: Intrinsic clearance in rat hepatocytes assessed per 10^6 cells
# Format: ADME, cell-based, Hepatocyte
# Condition: read-out: CLH
Measurement Label: hepatocyte CLint (µL/min/1e6 cells)

Guide cases for hepatocyte CLint, answers given:
Req: Please look up its hepatocyte CLint: CCCc1c(C(=O)Nc2cc(S(=O)(=O)N(C)C)ccc2C)cnn1-c1ccccc1
Resp: 42

Req: Value lookup for hepatocyte CLint; key = N#Cc1ccccc1Oc1ccc(C(=O)NCc2ccncc2)cc1
Resp: 28

(1) CCCc1c(C(=O)Nc2cc(S(=O)(=O)N(C)C)ccc2C)cnn1-c1cccnc1
(2) N#Cc1ccccc1Oc1ccc(C(=O)NCc2ccncn2)cc1
Req: Which of the two items, 1 and 2 , has the greater recorded hepatocyte CLint? Pick one and reply with its label.
Resp: 2
